Measured cytotoxicity at 70.5 h, listed per entry for reference.
assay: Human HepG2 cell viability assay in 384 well format; type: toxicity, cell-based; parameters: dose 125 nL, time 70.5 hour; concentration not given beside the values; conditions: HepG2 cells, read-out: Inhibition
Measure: cytotoxicity at 70.5 h (%)

| Compound | Measure | Value Unit | Observed Measurement |
| --- | --- | --- | --- |
| CCn1cnnc1C1CCN(C(=O)c2cc3c(s2)CCCC3)CC1 | cytotoxicity at 70.5 h | % | -9.56 |
| Cc1cnn(CCNCC(=O)NCC2(c3ccccc3)CCC2)c1 | cytotoxicity at 70.5 h | % | 22.8 |
| Cc1cnn(CC2CCCCN2c2ncnc3ccccc23)c1 (configuration not stated) | cytotoxicity at 70.5 h | % | -5.59 |
| CCc1nc(C2CCCN2C(=O)c2cc[nH]n2)no1 (configuration not stated) | cytotoxicity at 70.5 h | % | 3.06 |
| C[C@@H]1CN(c2ccc(Cl)cn2)C[C@@]1(O)C1CC1 | cytotoxicity at 70.5 h | % | -3.66 |
| CCc1nc(CN(C)C2CCN(CCc3ccccn3)C2)no1 (configuration not stated) | cytotoxicity at 70.5 h | % | 3.72 |
| Cc1ccc(CNC(=O)NC2CCCN(c3ncccn3)C2)n1C (configuration not stated) | cytotoxicity at 70.5 h | % | -8.01 |
| c1cc(CN2CCSC3(CCCCC3)C2)no1 | cytotoxicity at 70.5 h | % | -1.3 |
| CCCS(=O)(=O)NCc1cccnc1Oc1ccc(C)c(F)c1F | cytotoxicity at 70.5 h | % | -1.35 |
| CCCc1ccc(CN2CCC3(CCC(=O)N(CCCOC)C3)CC2)o1 | cytotoxicity at 70.5 h | % | 20.6 |
| N#CCCN(Cc1cccnc1)C(=O)c1cccc(-n2cnnn2)c1 | cytotoxicity at 70.5 h | % | -8.57 |
| CCNc1ncc(C(=O)N(C)C(C)c2ccc3c(c2)OCCO3)cn1 (configuration not stated) | cytotoxicity at 70.5 h | % | -2.94 |
